Target: Delta-type opioid receptor (Mus musculus)
Sequence (P32300 whole entry): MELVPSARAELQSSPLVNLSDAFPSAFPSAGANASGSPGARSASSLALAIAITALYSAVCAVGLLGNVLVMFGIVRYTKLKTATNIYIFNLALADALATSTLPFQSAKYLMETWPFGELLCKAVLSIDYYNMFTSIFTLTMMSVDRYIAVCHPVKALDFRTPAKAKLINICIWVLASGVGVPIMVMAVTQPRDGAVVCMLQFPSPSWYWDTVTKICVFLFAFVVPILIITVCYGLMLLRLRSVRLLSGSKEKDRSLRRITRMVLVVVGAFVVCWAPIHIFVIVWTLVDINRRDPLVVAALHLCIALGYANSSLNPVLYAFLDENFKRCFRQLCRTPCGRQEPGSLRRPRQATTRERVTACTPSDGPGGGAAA
Test: Displacement of [3H]DPDPE from delta opioid receptor in mouse whole brain without cerebellum
Exercise: for every item that follows, state its recorded pKi.
pKi is a log-scale quantity: -log10 of the concentration expressed in molar.

Looking up Oc1ccc2c3c1O[C@H]1[C@]4(CC[C@@]5(O)[C@@H](C2)N(CC2CC2)CC[C@]315)O[C@H]1CO[C@H]2CO[C@@H]4N21 , I see its pKi listed as 7.10

Looking up CC1(C)O[C@H]2N3[C@@H]1O[C@]1(CC[C@@]4(O)[C@H]5Cc6ccc(O)c7c6[C@@]4(CCN5CC4CC4)[C@H]1O7)[C@H]3OC2(C)C , I see its pKi listed as 7.14

Looking up CC1(C)O[C@@H]2N3[C@H]1O[C@]1(CC[C@@]4(O)[C@H]5Cc6ccc(O)c7c6[C@@]4(CCN5CC4CC4)[C@H]1O7)[C@@H]3OC2(C)C , I see its pKi listed as 7.66

Looking up CC(C)CN1CC[C@]23c4c5ccc(O)c4O[C@H]2[C@]2(CC[C@@]3(O)[C@H]1C5)O[C@@H]1N3[C@@H](OC1(C)C)C(C)(C)O[C@H]32 , I see its pKi listed as 6.27

Looking up CC(C)CN1CC[C@]23c4c5ccc(O)c4O[C@H]2[C@]2(CC[C@@]3(O)[C@H]1C5)O[C@H]1CO[C@H]3CO[C@@H]2N31 , I see its pKi listed as 6.07

Looking up Oc1ccc2c3c1O[C@H]1[C@]4(CC[C@@]5(O)[C@@H](C2)N(CC2CC2)CC[C@]315)O[C@@H]1CO[C@@H]2CO[C@H]4N21 , I see its pKi listed as 7.00

Looking up CN1CC[C@]23c4c5ccc(O)c4O[C@H]2[C@]2(CC[C@@]3(O)[C@H]1C5)O[C@H]1N3[C@H](OC1(C)C)C(C)(C)O[C@@H]32 , I see its pKi listed as 7.10

Looking up CN1CC[C@]23c4c5ccc(O)c4O[C@H]2[C@]2(CC[C@@]3(O)[C@H]1C5)O[C@@H]1N3[C@@H](OC1(C)C)C(C)(C)O[C@H]32 , I see its pKi listed as 8.01

Looking up Oc1ccc2c3c1O[C@H]1[C@]4(CC[C@@]5(O)[C@@H](C2)N(Cc2ccccc2)CC[C@]315)O[C@H]1CO[C@H]2CO[C@@H]4N21 , I see its pKi listed as 7.08
